Cited source: patent US7678784B2

Task for the reader: assign each of the following compounds its reported pIC50.
Target: BACE1 enzyme (Homo sapiens)
Construct: The HEK293-9B.A1 cell line, which overexpresses the BACE1 enzyme, was derived from HEK293 cells; endogenous in cells; washed 48,000 x g pellet of cell homogenate
Sequence (P56817 46-501): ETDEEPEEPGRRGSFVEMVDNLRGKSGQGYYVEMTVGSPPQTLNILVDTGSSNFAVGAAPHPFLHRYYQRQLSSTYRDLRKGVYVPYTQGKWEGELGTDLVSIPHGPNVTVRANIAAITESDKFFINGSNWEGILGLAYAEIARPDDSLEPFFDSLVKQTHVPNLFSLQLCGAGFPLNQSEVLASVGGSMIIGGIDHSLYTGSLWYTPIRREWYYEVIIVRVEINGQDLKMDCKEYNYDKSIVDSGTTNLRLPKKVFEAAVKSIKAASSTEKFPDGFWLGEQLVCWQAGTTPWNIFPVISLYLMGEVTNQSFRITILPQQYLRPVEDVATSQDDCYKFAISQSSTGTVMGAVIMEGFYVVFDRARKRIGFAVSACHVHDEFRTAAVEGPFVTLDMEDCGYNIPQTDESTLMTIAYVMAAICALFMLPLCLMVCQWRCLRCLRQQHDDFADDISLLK
Experiment: Radioligand displacement assay with a radiolabeled BACE inhibitor on HEK293-9B.A1 cell homogenate
Conditions: displacement of 1 nM tritiated radioligand, HEK293-9B.A1 homogenate, pH 5.0, 1.5 hr at 25° C.; read-out: Activity Rating (Activity based on IC50 values)
pIC50: −log10 of the molar value.

compound CCON=C1CC(=O)N=C(N)NCc2cc(Cl)c(c(Cl)c2)NC(=O)CNCCCC=CCOc2ccc1cc2 (single isomer, unassigned; isomer a) [Example 7] , pIC50 observed: > 8.30

So, CCON=C1CC(=O)N=C(N)NCc2cc(Cl)c(c(Cl)c2)NC(=O)CNCCCCC=CCOc2ccc1cc2 ? Its pIC50 was > 8.30

get_value(item= CCON=C1CC(=O)N=C(N)NCc2cc(Cl)c(c(Cl)c2)NC(=O)CNCCCCOc2ccc1cc2 , readout=pIC50) returns 7.30 to 8.30

Briefly, pIC50 measured for CCON=C1CC(=O)N=C(N)NCc2cc(Cl)c(c(Cl)c2)NC(=O)CNCCC=CCOc2ccc1cc2 (single isomer, unassigned; isomer a) [Example 4] : 7.30 to 8.30
